- STUDY TARGET: GS-9005 hydrolase B
- Type: biochemical, human
- SETUP CONDITIONS: pH 6.5; read-out: Inhibition profile IC50, 9005 Hydrolase B
Peptide text beside a SMILES is read from it. * marks the point of attachment. Cbz = O=C(OCc1ccccc1)*
MEASURE NAME: IC50 (µM)

INSERT INTO measurements (compound, measure_name, units, comparison_symbol, result_number) VALUES
  ('O=C[C@@H]1CCCN1C(=O)[C@@H]1CCCN1C(=O)OCc1ccccc1 [Cbz-pro-pro-COH, Carboxybenzoyl-Pro-Pro-COH] (Cbz-Pro-Pro-aldehyde)', 'IC50', 'µM', '>', 100),
  ('O=c1oc(Cl)c(Cl)c2ccccc12 [3,4 DCI, 3,4 dichloroisocoumarin]', 'IC50', 'µM', '=', 4),
  ('CCOP(=O)(OCC)Oc1ccc([N+](=O)[O-])cc1 [paraoxon]', 'IC50', 'µM', '=', 0.02);

---

- STUDY TARGET: GS-9005 hydrolase A
- SETUP CONDITIONS: pH 6.5; read-out: Inhibition profile IC50, 9005 Hydrolase A
Known IC50 of a selection of compounds
MEASURE NAME: IC50 (nM)

INSERT INTO measurements (smiles_code, study_target, units, comparison_symbol, result_number) VALUES
  ('O=c1oc(Cl)c(Cl)c2ccccc12', 'GS-9005 hydrolase A', 'nM', '>', 150000),
  ('CCOP(=O)(OCC)Oc1ccc([N+](=O)[O-])cc1', 'GS-9005 hydrolase A', 'nM', '=', 30);

Source of measurements: patent US7273717B2
